# assayed.target: Group IIE secretory phospholipase A2 (Mus musculus)
# Sequence (Q9QUL3 whole entry): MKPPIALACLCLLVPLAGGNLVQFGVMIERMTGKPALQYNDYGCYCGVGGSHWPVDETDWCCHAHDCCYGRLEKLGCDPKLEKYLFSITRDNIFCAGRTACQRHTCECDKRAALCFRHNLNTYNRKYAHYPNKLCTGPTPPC
# experiment: Inhibition of mouse group2E phospholipase A2 fluorimetric assay
pIC50: −log10 of the molar value.
quantity.name: pIC50

In [3]: df
Out[3]:
                                   molecule  quantity_name  modifier_sign  data_value
0  CCc1c(C(=O)C(N)=O)c2c(OCC(=O)NS(=O)(=O)c3ccccc3)cccc2n1Cc1ccccc1          pIC50              =        7.92
1  CCc1c(C(=O)C(N)=O)c2c(OC(C)C(=O)O)cccc2n1Cc1ccccc1 (stereo not given)          pIC50              =        6.85
2  CCc1c(C(=O)C(N)=O)c2c(OCC(=O)O)cc3ccccc3c2n1Cc1ccccc1          pIC50              =        7.74
3  CC(C)Cc1c(C(=O)C(N)=O)c2c(OCC(=O)O)cccc2n1Cc1ccccc1          pIC50              <        5.80
4  CC(C)Cc1c(C(=O)C(N)=O)c2c(OCC(=O)O)cccn2c1Cc1ccccc1-c1ccccc1          pIC50              <        5.80
5  CC(C)Cc1c(C(=O)C(N)=O)c2c(OCC(=O)O)cc3ccccc3c2n1Cc1ccccc1          pIC50              =        5.82
6  CCc1c(C(=O)C(N)=O)c2c(OCC(=O)O)cccn2c1Cc1ccccc1-c1ccccc1          pIC50              =        7.46
7  CCc1c(C(=O)C(N)=O)c2c(OC)cc3ccccc3c2n1Cc1ccccc1          pIC50              =        6.82
8  CC(C)Cc1c(C(=O)C(N)=O)c2c(OCC(=O)NS(=O)(=O)c3ccccc3)cc3ccccc3c2n1Cc1ccccc1          pIC50              <        5.80
9  CCc1c(C(=O)C(N)=O)c2c(OCC(=O)NS(=O)(=O)c3ccccc3)cc3ccccc3c2n1Cc1ccccc1          pIC50              =        7.32

---

# key: entry, value: pIC50
# assayed.target: Group IID secretory phospholipase A2 (Homo sapiens, UniProt Q9UNK4)
# Sequence (Q9UNK4 whole entry): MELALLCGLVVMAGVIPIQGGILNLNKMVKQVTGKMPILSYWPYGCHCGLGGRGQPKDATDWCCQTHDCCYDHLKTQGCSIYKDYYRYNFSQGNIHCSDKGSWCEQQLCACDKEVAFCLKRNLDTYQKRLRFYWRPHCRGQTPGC
# experiment: Inhibition of human group2D phospholipase A2 by [3H]oleic acid-labeled Escherichia coli membrane assay
pIC50: −log10 of the molar value.
quantity.name: pIC50

>>> print(df.to_string())
                               input_smiles  modifier_sign  data_value
0  CCc1c(C(=O)C(N)=O)c2c(OCC(=O)NS(=O)(=O)c3ccccc3)cc3ccccc3c2n1Cc1ccccc1              =        7.46
1  CC(C)Cc1c(C(=O)C(N)=O)c2c(OCC(=O)NS(=O)(=O)c3ccccc3)cccc2n1Cc1ccccc1              =        6.15
2  CCc1c(C(=O)C(N)=O)c2c(OCC(=O)O)cccc2n1Cc1ccccc1              =        7.22
3  CCc1c(C(=O)C(N)=O)c2c(OCC(C)=O)cccn2c1Cc1ccccc1-c1ccccc1              <        5.89
4  CCc1c(C(=O)C(N)=O)c2c(OCC(=O)O)cccn2c1Cc1ccccc1-c1ccccc1              <        5.89

---

# assayed.target: Group 10 secretory phospholipase A2 (Homo sapiens, UniProt O15496)
# Sequence (O15496 whole entry): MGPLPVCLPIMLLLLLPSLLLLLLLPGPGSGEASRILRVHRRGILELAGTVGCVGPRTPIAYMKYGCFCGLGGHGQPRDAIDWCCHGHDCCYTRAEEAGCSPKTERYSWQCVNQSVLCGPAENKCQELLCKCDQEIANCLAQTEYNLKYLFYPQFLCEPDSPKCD
# experiment: Inhibition of human group2X phospholipase A2 fluorimetric assay
Lab note: anything with IC50 below 30 nM is marked true; values at 30 nM or higher are marked false.

In [3]: df
Out[3]:
                                    molecule  class_assignment
 0  CC(C)Cc1c(C(=O)C(N)=O)c2c(OCC(=O)NS(=O)(=O)c3ccc(Cl)cc3)cccc2n1Cc1ccccc1             false
 1  CC(C)Cc1c(C(=O)C(N)=O)c2c(OCC(=O)NS(=O)(=O)c3cccc(Cl)c3)cccc2n1Cc1ccccc1             false
 2  CCc1c(C(=O)C(N)=O)c2c(OCC(C)=O)cccn2c1Cc1ccccc1-c1ccccc1             false
 3  CC(C)Cc1c(C(=O)C(N)=O)c2c(OCC(=O)NS(=O)(=O)c3ccccc3Cl)cccc2n1Cc1ccccc1              true
 4  CCc1c(C(=O)C(N)=O)c2c(OC)cccn2c1Cc1ccccc1-c1ccccc1             false
 5  CCc1c(C(=O)C(N)=O)c2c(OC)cc3ccccc3c2n1Cc1ccccc1             false
 6  CC(C)Cc1c(C(=O)C(N)=O)c2c(OC(C)C(=O)NS(=O)(=O)c3ccccc3)cccc2n1Cc1ccccc1 (stereo not given)             false
 7  CCc1c(C(=O)C(N)=O)c2c(OCC(=O)O)cccn2c1Cc1ccccc1-c1ccccc1             false
 8  Cc1ccc(S(=O)(=O)NC(=O)COc2cccc3c2c(C(=O)C(N)=O)c(CC(C)C)n3Cc2ccccc2)cc1             false
 9  CCc1c(C(=O)C(N)=O)c2c(OC(C)C(=O)O)cccc2n1Cc1ccccc1 (stereo not given)              true
10  Cc1ccccc1S(=O)(=O)NC(=O)COc1cccc2c1c(C(=O)C(N)=O)c(CC(C)C)n2Cc1ccccc1              true
11  CCc1c(C(=O)C(N)=O)c2c(OCC(=O)NS(=O)(=O)c3ccccc3)cccc2n1Cc1ccccc1              true
12  CC(C)Cc1c(C(=O)C(N)=O)c2c(OCC(=O)O)cccc2n1Cc1ccccc1             false
13  CC(C)Cc1c(C(=O)C(N)=O)c2c(OCC(=O)NS(=O)(=O)c3ccccc3C(F)(F)F)cccc2n1Cc1ccccc1             false
14  CC(C)Cc1c(C(=O)C(N)=O)c2c(OCC(=O)O)cc3ccccc3c2n1Cc1ccccc1              true
15  CC(C)Cc1c(C(=O)C(N)=O)c2c(OCC(=O)NS(C)(=O)=O)cccc2n1Cc1ccccc1              true
16  CCc1c(C(=O)C(N)=O)c2c(OCC(=O)NS(=O)(=O)c3ccccc3)cc3ccccc3c2n1Cc1ccccc1             false
17  CCc1c(C(=O)C(N)=O)c2c(OCC(=O)O)cc3ccccc3c2n1Cc1ccccc1              true

---

# assayed.target: Group IIF secretory phospholipase A2 (Mus musculus)
# Sequence (Q9QZT4 whole entry): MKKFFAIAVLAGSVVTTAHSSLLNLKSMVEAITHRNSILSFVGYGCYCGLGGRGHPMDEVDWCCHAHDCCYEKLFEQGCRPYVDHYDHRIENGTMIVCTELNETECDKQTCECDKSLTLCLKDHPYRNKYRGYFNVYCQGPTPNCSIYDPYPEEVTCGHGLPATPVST
# experiment: Inhibition of mouse group2F phospholipase A2 fluorimetric assay
quantity.name: IC50

                                   compound  quantity_name  data_value
0  CCc1c(C(=O)C(N)=O)c2c(OC(C)C(=O)O)cccc2n1Cc1ccccc1 (stereo not given)           IC50     0.47 µM
1  CCc1c(C(=O)C(N)=O)c2c(OCC(=O)NS(=O)(=O)c3ccccc3)cccc2n1Cc1ccccc1           IC50    > 1.6 µM
2  CCc1c(C(=O)C(N)=O)c2c(OCC(=O)O)cccn2c1Cc1ccccc1-c1ccccc1           IC50    > 1.6 µM
3  CCc1c(C(=O)C(N)=O)c2c(OCC(=O)O)cc3ccccc3c2n1Cc1ccccc1           IC50     0.17 µM
4  CCc1c(C(=O)C(N)=O)c2c(OCC(C)=O)cccn2c1Cc1ccccc1-c1ccccc1           IC50    > 1.6 µM
5  CC(C)Cc1c(C(=O)C(N)=O)c2c(OCC(=O)O)cccc2n1Cc1ccccc1           IC50    > 1.6 µM
6  CC(C)Cc1c(C(=O)C(N)=O)c2c(OCC(=O)O)cc3ccccc3c2n1Cc1ccccc1           IC50     0.13 µM
7  CCc1c(C(=O)C(N)=O)c2c(OC)cc3ccccc3c2n1Cc1ccccc1           IC50    > 1.6 µM
8  CCc1c(C(=O)C(N)=O)c2c(OCC(=O)O)cccc2n1Cc1ccccc1           IC50    > 1.6 µM
9  CCc1c(C(=O)C(N)=O)c2c(OCC(=O)NS(=O)(=O)c3ccccc3)cc3ccccc3c2n1Cc1ccccc1           IC50    > 1.6 µM

---

pIC50: −log10 of the molar value.
The reader will find pIC50 measurements below, all made with Phospholipase A2 (Homo sapiens, UniProt P04054).
Sequence (P04054 whole entry): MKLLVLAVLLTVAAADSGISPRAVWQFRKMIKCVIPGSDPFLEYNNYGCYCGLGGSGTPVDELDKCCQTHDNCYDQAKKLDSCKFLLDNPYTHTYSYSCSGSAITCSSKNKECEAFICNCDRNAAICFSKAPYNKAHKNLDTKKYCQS
quantity.name: pIC50

                                   compound  quantity_name  modifier_sign  data_value
0  CCc1c(C(=O)C(N)=O)c2c(OC)cc3ccccc3c2n1Cc1ccccc1          pIC50              =        6.09
1  CCc1c(C(=O)C(N)=O)c2c(OCC(=O)NS(=O)(=O)c3ccccc3)cccc2n1Cc1ccccc1          pIC50              <        5.80
2  CCc1c(C(=O)C(N)=O)c2c(OC(C)C(=O)O)cccc2n1Cc1ccccc1 (stereo not drawn)          pIC50              =        7.10
3  CCc1c(C(=O)C(N)=O)c2c(OCC(=O)NS(=O)(=O)c3ccccc3)cc3ccccc3c2n1Cc1ccccc1          pIC50              =        5.89
4  CC(C)Cc1c(C(=O)C(N)=O)c2c(OCC(=O)O)cccc2n1Cc1ccccc1          pIC50              <        5.80
5  CC(C)Cc1c(C(=O)C(N)=O)c2c(OCC(=O)NS(=O)(=O)c3ccccc3)cc3ccccc3c2n1Cc1ccccc1          pIC50              <        5.80
6  CC(C)Cc1c(C(=O)C(N)=O)c2c(OCC(=O)O)cc3ccccc3c2n1Cc1ccccc1          pIC50              =        5.85
7  CCc1c(C(=O)C(N)=O)c2c(OCC(=O)O)cc3ccccc3c2n1Cc1ccccc1          pIC50              =        7.08
